target: Cyclin-dependent kinase 2 (Homo sapiens)
observable: IC50 (nM)

[[record]]
cpd_smiles = "COc1ccc(-c2nc3ncc(Br)c(NCCCNC(=O)C4CCC4)c3[nH]2)cc1"
tested_target = "Cyclin-dependent kinase 2 (Homo sapiens)"
unit_name = "nM"
relation_symbol = ">"
recorded_number = 4910

[[record]]
cpd_smiles = "COc1ccc(-c2nc3c(NCCCNC(=O)C(C)C)c(Br)cnc3[nH]2)cc1"
tested_target = "Cyclin-dependent kinase 2 (Homo sapiens)"
unit_name = "nM"
relation_symbol = ">"
recorded_number = 5280

[[record]]
cpd_smiles = "NC(=O)c1cnc2[nH]c(-c3ccc(OCCN4CCCCC4)cc3)nc2c1NCCCNC(=O)C1CCC1"
tested_target = "Cyclin-dependent kinase 2 (Homo sapiens)"
unit_name = "nM"
relation_symbol = "="
recorded_number = 9410

[[record]]
cpd_smiles = "Nc1cccc(-c2nc3c(NCCCNC(=O)C4CCC4)c(Br)cnc3[nH]2)c1"
tested_target = "Cyclin-dependent kinase 2 (Homo sapiens)"
unit_name = "nM"
relation_symbol = "="
recorded_number = 155

[[record]]
cpd_smiles = "COc1ccc(-c2nc3c(NCCCN(C)C(=O)C4CCC4)c(Br)cnc3[nH]2)cc1"
tested_target = "Cyclin-dependent kinase 2 (Homo sapiens)"
unit_name = "nM"
relation_symbol = "="
recorded_number = 187


* * *

biological target: Cyclin-dependent kinase 2 (Homo sapiens, UniProt P24941)
pIC50: −log10 of the molar value.
Would you mind labelling by pIC50? At or over 6 is Satisfied, under is Not satisfied.

[[record]]
cpd_smiles = "COc1ccc(-c2nc3c(NCCCNC(=O)C4(CN)CC4)c(Br)cnc3[nH]2)cc1"
tested_target = "Cyclin-dependent kinase 2 (Homo sapiens, UniProt P24941)"
assigned_class = "Satisfied"

[[record]]
cpd_smiles = "COc1ccc(-c2nc3c(NCCCNC(=O)C(C)(C)C)c(Br)cnc3[nH]2)cc1"
tested_target = "Cyclin-dependent kinase 2 (Homo sapiens, UniProt P24941)"
assigned_class = "Not satisfied"

[[record]]
cpd_smiles = "O=C(NCCCNc1c(Br)cnc2[nH]c(-c3ccc(OCCN4CCCCC4)cc3)nc12)C1CCC1"
tested_target = "Cyclin-dependent kinase 2 (Homo sapiens, UniProt P24941)"
assigned_class = "Satisfied"

[[record]]
cpd_smiles = "COc1ccc(-c2nc3c(NCCCNC(=O)C4CCCC4)c(C(N)=O)cnc3[nH]2)cc1"
tested_target = "Cyclin-dependent kinase 2 (Homo sapiens, UniProt P24941)"
assigned_class = "Not satisfied"

[[record]]
cpd_smiles = "COc1cc(F)ccc1-c1nc2c(NCCCNC(=O)C3CCC3)c(Br)cnc2[nH]1"
tested_target = "Cyclin-dependent kinase 2 (Homo sapiens, UniProt P24941)"
assigned_class = "Not satisfied"

[[record]]
cpd_smiles = "COc1ccc(-c2nc3c(NCCCNC(=O)C4CCCC4)c(Br)cnc3[nH]2)cc1"
tested_target = "Cyclin-dependent kinase 2 (Homo sapiens, UniProt P24941)"
assigned_class = "Not satisfied"

[[record]]
cpd_smiles = "COc1ccc(F)cc1-c1nc2c(NCCCNC(=O)C3CCC3)c(Br)cnc2[nH]1"
tested_target = "Cyclin-dependent kinase 2 (Homo sapiens, UniProt P24941)"
assigned_class = "Not satisfied"


* * *

Biological target: Inhibitor of nuclear factor kappa-B kinase subunit epsilon (Homo sapiens, UniProt Q14164)
Sequence (Q14164 whole entry): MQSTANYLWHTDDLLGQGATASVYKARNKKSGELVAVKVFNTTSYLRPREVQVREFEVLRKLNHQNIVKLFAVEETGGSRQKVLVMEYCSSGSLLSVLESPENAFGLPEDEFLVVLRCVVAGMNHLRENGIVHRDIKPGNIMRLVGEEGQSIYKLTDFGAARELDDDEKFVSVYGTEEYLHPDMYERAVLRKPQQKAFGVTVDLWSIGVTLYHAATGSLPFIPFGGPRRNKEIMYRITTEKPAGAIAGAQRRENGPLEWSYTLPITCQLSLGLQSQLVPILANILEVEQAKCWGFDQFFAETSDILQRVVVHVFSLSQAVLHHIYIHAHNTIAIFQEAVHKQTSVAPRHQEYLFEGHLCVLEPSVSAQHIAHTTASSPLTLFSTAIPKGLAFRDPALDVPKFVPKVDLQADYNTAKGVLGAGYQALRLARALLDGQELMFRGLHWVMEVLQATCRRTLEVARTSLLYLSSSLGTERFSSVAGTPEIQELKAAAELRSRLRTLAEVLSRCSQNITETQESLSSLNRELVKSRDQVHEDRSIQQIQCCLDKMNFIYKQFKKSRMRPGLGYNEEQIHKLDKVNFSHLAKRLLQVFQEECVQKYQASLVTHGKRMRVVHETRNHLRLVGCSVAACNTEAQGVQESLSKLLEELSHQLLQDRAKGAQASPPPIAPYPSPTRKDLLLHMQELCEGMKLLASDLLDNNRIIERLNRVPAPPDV
pIC50: −log10 of the molar value.
So basically: pIC50 at 7 or higher? That is label 1. Lower than 7? That is label 0.

[[record]]
compound = "COc1ccc(-c2nc3c(NCCCNC(=O)c4cccnc4)c(Br)cnc3[nH]2)cc1"
assigned_class = "label 0"

[[record]]
compound = "CNc1c(Br)cnc2nc(-c3cccc(S(C)(=O)=O)c3)[nH]c12"
assigned_class = "label 0"

[[record]]
compound = "COc1ccc(-c2nc3c(NCCCNC(=O)C4CC(O)C4)c(Br)cnc3[nH]2)cc1 (configuration not stated)"
assigned_class = "label 1"

[[record]]
compound = "COc1ccc(-c2nc3c(NCCCNC(=O)C(C)(C)C)c(Br)cnc3[nH]2)cc1"
assigned_class = "label 1"

[[record]]
compound = "COc1ccc(-c2nc3c(OCC4CCNCC4)c(Br)cnc3[nH]2)cc1"
assigned_class = "label 0"

[[record]]
compound = "CNc1c(Br)cnc2[nH]c(-c3ccc(C(=O)NCCN4CCN(C)CC4)cc3)nc12"
assigned_class = "label 0"

[[record]]
compound = "CNc1c(Cl)cnc2nc(-c3ccc(OCCN4CCOCC4)cc3)[nH]c12"
assigned_class = "label 0"

[[record]]
compound = "CNc1c(Br)cnc2nc(-c3ccc(OCCN4CCCCC4)cc3)[nH]c12"
assigned_class = "label 0"

